Tested on: Saccharomyces cerevisiae
TEST_NAME: protein stability index of tFT-peptide fusion (C-terminal peptide) (PSI (0-1 scale)); higher = more stable (slower turnover);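 note: PSI is a weighted mean of sequencing reads over stability bins, variants kept only with over 10 reads, mCherry proximal and sfGFP distal, peptide attached via GGGS linker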
MEASUREMENT_CONDITIONS: genetic background: cdc34-1; temperature: 37 C
Mark 0.0 for protein stability index values under 0.5, and 1.0 for everything at or above.

[[record]]
sequence_text = "SSAPPTLHTRPS"
label_value = 1.0

[[record]]
sequence_text = "CAGLLSVSFWLF"
label_value = 1.0

[[record]]
sequence_text = "HLGNTMIKKLIG"
label_value = 1.0

[[record]]
sequence_text = "FGLLLVLASALG"
label_value = 0.0

[[record]]
sequence_text = "TVERKMYWQRWG"
label_value = 1.0

[[record]]
sequence_text = "GSLHWVMVFAVP"
label_value = 1.0

[[record]]
sequence_text = "GFNIFFFFFFFV"
label_value = 0.0

[[record]]
sequence_text = "IKSLLGCWHKHY"
label_value = 1.0

[[record]]
sequence_text = "HLYPFPSLHFAF"
label_value = 1.0

[[record]]
sequence_text = "LLFLVCFFPSIS"
label_value = 0.0

[[record]]
sequence_text = "LLVYLYFFFSCS"
label_value = 0.0

[[record]]
sequence_text = "LLGGRVLWAWRV"
label_value = 1.0

[[record]]
sequence_text = "VFVLFLRAVACR"
label_value = 0.0

[[record]]
sequence_text = "SFLLGCCWLVLC"
label_value = 0.0

[[record]]
sequence_text = "RRIKIRKQEYIS"
label_value = 1.0

[[record]]
sequence_text = "FTFPLPPSLLLV"
label_value = 0.0

[[record]]
sequence_text = "VCLWAIHLSGCW"
label_value = 1.0

[[record]]
sequence_text = "VWVISLCIGGVG"
label_value = 0.0

[[record]]
sequence_text = "EGVVLLVDCVAT"
label_value = 0.0


====

Test system: Saccharomyces cerevisiae
TEST_NAME: protein stability index of tFT-peptide fusion (C-terminal peptide) (PSI (0-1 scale)); higher = more stable (slower turnover)
MEASUREMENT_CONDITIONS: genetic background: wild type; temperature: 37 C
Mark 0.0 for protein stability index values under 0.4, and 1.0 for everything at or above.

[[record]]
sequence_text = "LWGVGFLFVLVG"
label_value = 0.0

[[record]]
sequence_text = "LRFFYFLHFCIL"
label_value = 0.0

[[record]]
sequence_text = "VMYRGVRISWFL"
label_value = 1.0

[[record]]
sequence_text = "HRNILSIIIKNL"
label_value = 0.0

[[record]]
sequence_text = "VISGFVLVFRVR"
label_value = 1.0

[[record]]
sequence_text = "VVATLRCLRCSV"
label_value = 1.0

[[record]]
sequence_text = "ASVCLNVIYQLV"
label_value = 0.0

[[record]]
sequence_text = "EYGLLLTLLAYY"
label_value = 1.0

[[record]]
sequence_text = "TTSHFCVVLVSV"
label_value = 0.0

[[record]]
sequence_text = "LFVMVSVSGLVV"
label_value = 0.0


====

Each entry below lists one item and its recorded protein stability index value.
Tested on: Saccharomyces cerevisiae
TEST_NAME: protein stability index of tFT-peptide fusion (C-terminal peptide) (PSI (0-1 scale)); higher = more stable (slower turnover)
MEASUREMENT_CONDITIONS: genetic background: wild type; temperature: 30 C
MEASUREMENT_TYPE: protein stability index

[[record]]
sequence_text = "YGVRCSRINRSG"
measured_target = "Saccharomyces cerevisiae"
reported_value = 0.678

[[record]]
sequence_text = "YPALCSRFFAPS"
measured_target = "Saccharomyces cerevisiae"
reported_value = 0.711

[[record]]
sequence_text = "RIVVDIYANRRG"
measured_target = "Saccharomyces cerevisiae"
reported_value = 0.689

[[record]]
sequence_text = "MSGVWLWVGGGG"
measured_target = "Saccharomyces cerevisiae"
reported_value = 0.73

[[record]]
sequence_text = "PPSPPPPPSSPP"
measured_target = "Saccharomyces cerevisiae"
reported_value = 0.707

[[record]]
sequence_text = "DGGHSFLSVARG"
measured_target = "Saccharomyces cerevisiae"
reported_value = 0.644

[[record]]
sequence_text = "GNIHHTRFLALL"
measured_target = "Saccharomyces cerevisiae"
reported_value = 0.458

[[record]]
sequence_text = "PRRLCLLPLLSP"
measured_target = "Saccharomyces cerevisiae"
reported_value = 0.662

[[record]]
sequence_text = "LPGAEASRCTST"
measured_target = "Saccharomyces cerevisiae"
reported_value = 0.657

[[record]]
sequence_text = "PFPLPPPPSPTP"
measured_target = "Saccharomyces cerevisiae"
reported_value = 0.699

[[record]]
sequence_text = "LRGSCFSLWLVF"
measured_target = "Saccharomyces cerevisiae"
reported_value = 0.526

[[record]]
sequence_text = "DPFYRNFARREA"
measured_target = "Saccharomyces cerevisiae"
reported_value = 0.738

[[record]]
sequence_text = "VFSFFNFCFCFY"
measured_target = "Saccharomyces cerevisiae"
reported_value = 0.615

[[record]]
sequence_text = "RGDIQASKRIHL"
measured_target = "Saccharomyces cerevisiae"
reported_value = 0.752

[[record]]
sequence_text = "AQRNSPIVLAVL"
measured_target = "Saccharomyces cerevisiae"
reported_value = 0.527

[[record]]
sequence_text = "SGLLGVSIHGLR"
measured_target = "Saccharomyces cerevisiae"
reported_value = 0.654

[[record]]
sequence_text = "HTEVDIVKRDRR"
measured_target = "Saccharomyces cerevisiae"
reported_value = 0.69

[[record]]
sequence_text = "VGGRLRECVRVG"
measured_target = "Saccharomyces cerevisiae"
reported_value = 0.628

[[record]]
sequence_text = "AGMLMCLYLFFV"
measured_target = "Saccharomyces cerevisiae"
reported_value = 0.468

